Collected pKi values appear next to each entry.
Biological target: activated JNK3 (Homo sapiens, UniProt P53779)
Construct: One such construct encodes amino acid residues Ser40-Glu402 of JNK3α1 and is preceded by Met and Gly residues; Met-Gly (initiator methionine and added glycine) (N)
Sequence (P53779 40-402): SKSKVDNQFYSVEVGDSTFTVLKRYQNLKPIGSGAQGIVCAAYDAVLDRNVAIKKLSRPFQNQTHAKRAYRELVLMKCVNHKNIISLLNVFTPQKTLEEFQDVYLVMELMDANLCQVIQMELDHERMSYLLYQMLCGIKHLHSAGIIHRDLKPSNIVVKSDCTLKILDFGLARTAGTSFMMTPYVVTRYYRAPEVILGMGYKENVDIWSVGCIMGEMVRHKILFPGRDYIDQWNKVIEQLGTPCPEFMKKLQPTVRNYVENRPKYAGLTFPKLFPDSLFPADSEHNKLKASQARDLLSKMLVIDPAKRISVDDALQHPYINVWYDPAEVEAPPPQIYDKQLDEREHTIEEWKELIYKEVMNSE
Assay: JNK inhibition assay (spectrophotometric coupled-enzyme assay)
Details: 10 nM activated JNK3, 10 μM ATP; read-out: Activity in the JNK3 Inhibition Assay (Ki rating A-C)
Procedure: A BLAST search of the EST database using the published JNK3α1 cDNA as a query identified an EST clone (#632588) that contained the entire coding sequence for human JNK3α1. […] Compounds were assayed for the inhibition of JNK3 by a spectrophotometric coupled-enzyme assay. […] The decrease of absorbance at 340 nm was monitored as a function of time. […]
pKi: −log10 of the molar value.

The following compounds have reported results that may help.
CCc1nnc(Nc2nccc(-c3cc(OC)c(OC)c(OC)c3)n2)s1 [Compound I-84]    < 6.00
COc1cccc(Nc2nccc(-c3cc(Cl)c(OC)c(Cl)c3)n2)c1 [Compound I-51]    > 7.00
COc1cc(-c2ccnc(Nc3cccc(C(F)(F)F)c3)n2)cc(OC)c1OC [Compound I-19]    > 7.00
COc1cc(-c2ccnc(Nc3cccc(C(F)(F)F)c3)n2)cc2c1OCO2 [Compound I-31]    < 6.00
COc1cc(-c2ccnc(Nc3ccccc3)n2)cc(OC)c1OC [Compound I-15]    > 7.00

// query // pKi lookup, key: COc1cc(-c2ccnc(Nc3onc(C)c3C)n2)cc(OC)c1OC [Compound I-87]
// result 6.00 to 7.00

// query What pKi value was documented for this compound, CCOc1c(OC)cc(-c2ccnc(Nc3cccc(F)c3)n2)cc1OC [Compound I-45] ?
// result > 7.00

// query Reported pKi, compound COc1cc(-c2ccnc(Nc3ccc(C)c(C)c3)n2)cc(OC)c1OC [Compound I-25] : ____
// result > 7.00

// query Query (compound): COc1ccc(Nc2nccc(-c3cc(OC)c4c(c3)OCO4)n2)cc1 [Compound I-33] ; field requested: pKi
// result 6.00 to 7.00

// query # input compound: COc1cc(-c2ccnc(Nc3c(F)cccc3F)n2)cc(OC)c1OC [Compound I-2] ; wanted: its pKi
// result 6.00 to 7.00

// query May I ask what pKi has been recorded for COc1cc(-c2ccnc(Nc3cccc(Cl)c3)n2)cc(OC)c1OCCN1CCOCC1 [Compound I-39] ?
// result > 7.00

// query Sample COc1c(C)cc(-c2ccnc(Nc3cccc(F)c3)n2)cc1C [Compound I-47] — what was its pKi?
// result > 7.00

// query So what does the record say about pKi for CCOc1c(OC)cc(-c2ccnc(Nc3cccc(OC)c3)n2)cc1OC [Compound I-50] ?
// result > 7.00

// query Which pKi value belongs to COc1cc(-c2ccnc(Nc3cccc(S(N)(=O)=O)c3)n2)cc(OC)c1OC [Compound I-94] ?
// result > 7.00

// query Name the reported pKi value associated with the compound COc1cc(-c2ccnc(Nc3ccc4c(c3)OCO4)n2)cc(OC)c1OC [Compound I-63]
// result > 7.00

// query So what's the measured pKi for this one? COc1cc(-c2ccnc(Nc3ccc(Cl)nc3)n2)cc(OC)c1O [Compound I-73]
// result > 7.00

// query What pKi value was documented for this compound, COc1cc(-c2ccnc(NC3CCCCC3)n2)cc(OC)c1OC [Compound I-4] ?
// result 6.00 to 7.00

// query Item under review: COc1cc(-c2ccnc(Nc3cccc(O)c3)n2)cc(OC)c1OC [Compound I-58] . Reported pKi?
// result > 7.00
